The reported measurements were obtained from patent US20250355001A1.

subject_of_test: T1, full length human tau protein 2N4R (hT40) (human, UniProt P10636 1-758)
T1 construct: recombinant; also called T441
assay: SPR, summary table
observation_type: Kd (nM)
Dear colleague, please return just the value in nM, with no unit written.

Sample records with Kd:
binder	observation_type	assay_result
CC7 scAb (scFv, not shown: small tags and cut ends, scAb) scFv: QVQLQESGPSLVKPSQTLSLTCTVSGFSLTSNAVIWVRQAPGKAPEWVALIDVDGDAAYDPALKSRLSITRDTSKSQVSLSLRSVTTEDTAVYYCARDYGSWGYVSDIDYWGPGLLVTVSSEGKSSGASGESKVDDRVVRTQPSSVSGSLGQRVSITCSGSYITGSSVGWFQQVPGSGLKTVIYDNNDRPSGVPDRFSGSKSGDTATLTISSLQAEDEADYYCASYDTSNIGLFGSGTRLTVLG	Kd	1.23
412E10 scAb (scFv, not shown: small tags and cut ends, scAb) scFv: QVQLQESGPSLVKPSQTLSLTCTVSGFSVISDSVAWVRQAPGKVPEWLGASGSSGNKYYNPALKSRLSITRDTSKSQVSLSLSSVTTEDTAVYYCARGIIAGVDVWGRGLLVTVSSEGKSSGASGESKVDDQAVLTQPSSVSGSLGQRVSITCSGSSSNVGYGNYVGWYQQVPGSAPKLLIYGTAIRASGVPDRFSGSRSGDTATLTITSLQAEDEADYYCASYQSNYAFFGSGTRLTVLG	Kd	3.16
CE3 scAb (scFv, not shown: small tags and cut ends, scAb) scFv: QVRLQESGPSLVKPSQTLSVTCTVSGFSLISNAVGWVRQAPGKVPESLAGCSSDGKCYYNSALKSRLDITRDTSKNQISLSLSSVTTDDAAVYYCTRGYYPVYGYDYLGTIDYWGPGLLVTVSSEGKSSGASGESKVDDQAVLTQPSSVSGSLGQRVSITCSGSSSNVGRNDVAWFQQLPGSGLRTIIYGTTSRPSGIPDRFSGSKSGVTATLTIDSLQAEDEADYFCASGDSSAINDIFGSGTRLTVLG	Kd	3.79
S1E12 scAb (scFv, not shown: small tags and cut ends, scAb) scFv: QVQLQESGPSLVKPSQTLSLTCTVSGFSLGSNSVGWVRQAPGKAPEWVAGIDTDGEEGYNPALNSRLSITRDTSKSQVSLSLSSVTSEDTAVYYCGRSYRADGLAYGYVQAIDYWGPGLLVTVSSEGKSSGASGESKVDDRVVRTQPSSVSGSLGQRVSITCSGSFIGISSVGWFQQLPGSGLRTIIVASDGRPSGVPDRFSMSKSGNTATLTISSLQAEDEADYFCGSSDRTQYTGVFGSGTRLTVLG	Kd	0.829

Attention now turns to another entry.
Query :: Return Kd for the following binder: CE2 scAb (scFv, not shown: small tags and cut ends, scAb) scFv: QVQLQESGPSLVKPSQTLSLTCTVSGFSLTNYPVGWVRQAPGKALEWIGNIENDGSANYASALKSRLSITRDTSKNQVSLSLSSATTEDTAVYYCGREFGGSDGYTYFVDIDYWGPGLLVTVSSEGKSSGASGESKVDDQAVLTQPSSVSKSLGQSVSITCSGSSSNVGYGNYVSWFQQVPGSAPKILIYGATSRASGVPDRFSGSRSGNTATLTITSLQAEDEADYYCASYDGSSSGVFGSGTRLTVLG
Result :: 5.03
